Origin of the recorded values: patent US11505536B2

tested on: MOLM-13 cells (human acute myeloid leukemia cells); assay: MOLM-13 Cellular Assay; type: cell-based; details: Homo sapiens, MOLM-13, 72 h, 72 hours exposure, cell viability by CellTiter-Glo
pIC50: −log10 of the molar value.
readout.name: pIC50

(P) C=C(C)c1cn(-c2ccccc2C)c(=O)c2cc(F)c(-n3nc(CO)n(CC)c3=O)cc12
(Q) CCn1c(CO)nn(-c2cc3c(C(C)C)cn([C@H]4CCCC[C@H]4C)c(=O)c3cc2F)c1=O
(R) CCn1c(CO)nn(-c2nc3c(C(C)C)cn(-c4ccccc4C)c(=O)c3cc2F)c1=O
(S) CCn1c(CO)nn(-c2cc3c(C(C)C)cn(C(COC)COC)c(=O)c3cc2F)c1=O
(T) CCn1c(CO)nn(-c2cc3c(C(C)C)cn(-c4c(C)n[nH]c4Cl)c(=O)c3cc2F)c1=O
// rank the listed molecules by pIC50, lowest value first Would you mind listing the labels in the order requested?
S, T, Q, R, P

====

test system: MOLM-13 cells (human acute myeloid leukemia cells); test: MOLM-13 Cellular Assay; type: cell-based; conditions: Homo sapiens, MOLM-13, 72 h, 72 hours exposure, cell viability by CellTiter-Glo
pIC50: −log10 of the molar value.
readout.name: pIC50

> print(dat)
                                   compound  readout.name  value.observed
1  CCn1c(CO)nn(-c2nc3c(C(C)C)cn(-c4ccccc4C(F)(F)F)c(=O)c3cc2F)c1=O [Example 133]         pIC50            8.70
2  C=C(C)c1cn(-c2ccccc2C)c(=O)c2ccc(-n3nc(CO)n(CC)c3=O)cc12 [Example 15]         pIC50            9.40
3  CCn1c(CO)nn(-c2cc3c(C(C)C)cn([C@@H]4CCCC[C@@H]4C)c(=O)c3cc2F)c1=O [Example 111]         pIC50            9.15
4  CCn1c(CO)nn(-c2nc3c([C@H](C)C(F)(F)F)cn(-c4ccccc4C)c(=O)c3cc2F)c1=O [Example 37]         pIC50            8.52

(1) CCn1c(CO)nn(-c2cc3c(C(C)C)cn(-c4ncccc4C)c(=O)c3cc2F)c1=O [Example 118]
(2) C=C(C)c1cn(-c2cccc(OCCO)c2Cl)c(=O)c2cc(F)c(-n3nc(CO)n(CC)c3=O)cc12 [Example 65]
Which one would you say has the larger pIC50 value: 1 , or 2 ? Write down the label of the entry you select.
1
(1: 8.00, 2: 7.70)

(A) C=C(C)c1cn(-c2ccc(F)cc2C)c(=O)c2cc(F)c(-n3nc(CO)n(CC)c3=O)cc12 [Example 76]
(B) C=C(C)c1cn(-c2ccccc2C)c(=O)c2cc(C)c(-n3nc(CO)n(CC)c3=O)cc12 [Example 79]
Min pIC50? A | B Write down the label attached to your selection.
B
(B: 8.00, A: 8.40)

(1) CCn1c(CO)nn(-c2cc3c(C(C)C)cn([C@H]4CCCC[C@@H]4C)c(=O)c3cc2F)c1=O (stereo in doubt) [Example 121]
(2) CCn1c(CO)nn(-c2cc3c(C(C)C)cn(-c4csnc4C)c(=O)c3cc2F)c1=O [Example 131]
(3) CCn1c(CO)nn(-c2ccc3c(=O)n(-c4cccc(F)c4)cc(-c4ccccc4)c3c2)c1=O [Example 4]
Returns the items ordered by pIC50, from maximum to minimum. Reply with the item labels sorted in the order that was asked for.
1, 2, 3
(1: 8.40, 2: 7.30, 3: 7.00)

(A) CCn1c(CO)nn(-c2cc3c(C(C)C)cn(-c4cnccc4C)c(=O)c3cc2F)c1=O [Example 136]
(B) C=C(C)c1cn(-c2c(C)n[nH]c2Cl)c(=O)c2cc(F)c(-n3nc(CO)n(CC)c3=O)cc12 [Example 60]
(C) CCn1c(CO)nn(-c2ccc3c(=O)n(-c4c(F)cccc4Cl)cc(C(C)C)c3c2)c1=O [Example 3]
Parameters: sort_field (pIC50), sort_dir (desc). To answer, arrange all of the labels according to the requested order.
C, B, A

(A) C=C(C)c1cn(-c2ccccc2Cl)c(=O)c2cc(F)c(-n3nc(CO)n(CC)c3=O)cc12 [Example 45]
(B) CCn1c(CO)nn(-c2ccc3c(=O)n(-c4c(Cl)cccc4Cl)cc(C4(C)CC4)c3c2)c1=O [Example 7]
Of A and B , which carries the smaller reported pIC50 figure? Answer with the label corresponding to your selection.
B
(B: 8.70, A: 9.52)

(1) CCn1c(CO)nn(-c2cc3c(C(C)C)cn(-c4cc(C)cnc4Cl)c(=O)c3cc2F)c1=O [Example 98]
(2) CCn1c(CO)nn(-c2ccc3c(=O)n(-c4ccc([N+](=O)[O-])cc4F)cc(I)c3c2)c1=O [Example 16]
(3) CCn1c(CO)nn(-c2cc3c(C(C)C)cn(-c4cc(F)ccc4F)c(=O)c3cc2F)c1=O [Example 68]
rank_up(items): orders items by reported pIC50 in ascending numerical order. Lab note: record answer as labels in requested order.
2, 1, 3
(2: 6.52, 1: 7.30, 3: 8.52)

(A) CCn1c(CO)nn(-c2cc3c(C(C)C)cn(-c4scnc4C)c(=O)c3cc2F)c1=O [Example 39]
(B) CCn1c(CO)nn(-c2cc3c(C(C)C)cn(-c4cc(OC)ncc4C)c(=O)c3cc2F)c1=O [Example 113]
Among A and B , which shows a numerically higher pIC50 result? // output: label of the selected item
B

(a) CCn1c(CO)nn(-c2cc3c(C(C)C)cn(-c4c(C)cnc(OC)c4Cl)c(=O)c3cc2F)c1=O [Example 61]
(b) CCn1c(CO)nn(-c2cc3c(C(C)C)cn([C@H]4CCC[C@H]4C)c(=O)c3cc2F)c1=O (stereo in doubt) [Example 126]
(c) CCn1c(CO)nn(-c2cc3c(C(C)C)cn([C@@H]4CCC[C@H]4C)c(=O)c3cc2F)c1=O (stereo in doubt) [Example 123]
(d) CCn1c(CO)nn(-c2ccc3c(=O)n(-c4c(F)cccc4Cl)nc(C(C)C)c3c2)c1=O [Example 19]
(e) CCn1c(CO)nn(-c2cc3c(C(C)C)cn(-c4ccc(F)cc4C)c(=O)c3cc2F)c1=O [Example 64]
Hi! Can you put these in order of pIC50, lowest number first? Order the labels as requested and list them.
c, d, a, b, e
(c: 8.05, d: 8.40, a: 8.70, b: 9.00, e: 9.30)

(1) C=C(C)c1cn(-c2cccc(F)c2C)c(=O)c2cc(F)c(-n3nc(CO)n(CC)c3=O)cc12 [Example 86]
(2) CCC(CC)n1cc(C(C)C)c2cc(-n3nc(CO)n(CC)c3=O)c(F)cc2c1=O [Example 122]
Consider 1 and 2 . Which of these has its pIC50 at a higher number? Reply briefly: the label of your chosen item.
1

====

Below are IC50 values recorded for human DHODH (Homo sapiens (Human), UniProt Q02127).
readout.name: IC50 (nM)

Check out these entries, answers already filled in.
> print(dat)
                            chemical.smiles  readout.name  readout.unit  value.observed
1  C=C(C)c1cn(-c2c(F)ccc(OC)c2Cl)c(=O)c2cc(F)c(-n3nc(CO)n(CC)c3=O)cc12          IC50            nM           0.267
2  CCn1c(CO)nn(-c2cc3c(C(C)C)cn(-c4nc(C)ccc4Cl)c(=O)c3cc2F)c1=O          IC50            nM            3.07

(A) CCn1c(CO)nn(-c2cc3c(C4(C)CC4)cn(-c4c(F)cccc4Cl)c(=O)c3cc2F)c1=O
(B) CCn1c(CO)nn(-c2ccc3c(=O)n(-c4cccc(F)c4)cc(C(C)C)c3c2)c1=O
Dear colleague, could you let me know whether A or B has the lower recorded IC50? Thanks. Write down the label attached to your selection.
A

====

system: MOLM-13 cells (human acute myeloid leukemia cells); assay: MOLM-13 Cellular Assay; format: cell-based; conditions: Homo sapiens, MOLM-13, 72 h, 72 hours exposure, cell viability by CellTiter-Glo
pIC50: −log10 of the molar value.
readout.name: pIC50

> print(dat)
                                   molecule  value.observed
1  CCn1c(CO)nn(-c2ccc3c(=O)n(-c4cccc(F)c4)nc(C(C)C)c3c2)c1=O            7.52
2  C=C(C)c1cn(-c2c(C)cccc2F)c(=O)c2cc(F)c(-n3nc(CO)n(CC)c3=O)cc12            9.15
3  CCC(C)c1cn(-c2c(F)cccc2Cl)c(=O)c2cc(F)c(-n3nc(CO)n(CC)c3=O)cc12 (racemic)            9.22

(1) CCn1c(CO)nn(-c2cc3c(C(C)C)cn(C45CCC(CC4)C5)c(=O)c3cc2F)c1=O
(2) CCn1c(CO)nn(-c2cc3c(C(C)C)cn([C@@H]4CCCC[C@H]4C)c(=O)c3cc2F)c1=O (stereo in doubt)
(3) CCn1c(CO)nn(-c2cc3c(C(C)C)cn(-c4ccccc4F)c(=O)c3cc2F)c1=O
Could you please sort these 3 entries by pIC50 from high to low? # format: label list in the order the request specifies
2, 3, 1
(2: 9.00, 3: 8.52, 1: 8.15)
